Experiment: in vivo
Conditions: male, Sprague-Dawley, rat, iv, t1/2 in plasma
Recorded metric: half-life

CCCCCCCCCCCCCCCCOCCCOP(=O)(O)CO[C@H](CO)Cn1ccc(N)nc1=O [BCV, Brincidofovir]
< 1 h

Query molecule follows.
Given CCCCCCCCCCCCCCCCOCCCOP(=O)(O)OCC1=C[C@H](O)[C@H](n2cnc3c(=O)[nH]c(N)nc32)O1 [AB23040] , respond with its half-life. < 1 h

====

Test system: JC virus (JCV)
Test: microbe, parasite or virus in culture
Settings: JC polyomavirus, COS-7
Recorded metric: EC90 (µM)
Could you give me the number in µM? Just the number is fine.

Below are worked cases with known answers.
CCCCCCCCCCCCCCCCOCCCOP(=O)(O)CO[C@H](CO)Cn1ccc(N)nc1=O
1.85
CCCCCCCCCCCCCCCCOCCCOP(=O)(O)OCC1=CC(O)C(n2ccc(=O)[nH]c2=O)O1 (stereo not shown)
23.4

Input Nc1ccn(C[C@@H](CO)OCP(=O)(O)O)c(=O)n1 [CDV, Cidofovir, reference compound] , output reported EC90. 107

// Input: `CCCCCCCCCCCCCCCCOCCCOP(=O)(O)OCC1=C[C@H](O)[C@H](n2cnc3c(=O)[nH]c(N)nc32)O1` . Output its EC90 only. 28

====

Assay: in vitro
Settings: dog
Recorded metric: CC50

Respond only with CC50 recorded for Nc1nc2c(ncn2[C@@H]2OC(CO)=CC2O)c(=O)[nH]1 (stereo partly shown) > 2000 µM

====

Tested on: West Nile virus (WNV)
Conditions: African green monkey
Recorded metric: CC50

Identify the reported CC50 for the following entry. Nc1ccn([C@@H]2OC(CO)=C[C@H]2O)c(=O)n1 [AB21650, 3′-deoxy-3′,4′-didehydro cytidine] > 2 mM

====

Test system: poliovirus-1 (POV-1)
Settings: POV-1; SI = CC50/EC50
Recorded metric: SI
Lab note: jot down the number only; don't add units.

Example results:
CC(C)S(=O)(=O)n1c(N)nc2ccc(/C(=N/O)c3ccccc3)cc21
350
Nc1nc2c(ncn2[C@@H]2OC(CO)=CC2O)c(=O)[nH]1 (stereo partly shown)
0
O=c1ccn([C@@H]2OC(CO)=C[C@H]2O)c(=O)[nH]1
0

Here's the next entry for you.
Output measured SI for this item: Nc1ccn([C@@H]2OC(CO)=C[C@H]2O)c(=O)n1 [AB21650, 3′-deoxy-3′,4′-didehydro cytidine] 0

====

Experiment: in vitro
Conditions: dog
Recorded metric: CC50

Indicate the recorded CC50 value for this compound: Nc1nc2c(ncn2[C@@H]2OC(CO)=CC2O)c(=O)[nH]1 (stereo partly shown) [AB21651] > 2 mM

====

Experiment: in vitro
Details: African green monkey
Recorded metric: CC50

Give the value of CC50 reported for the following: Nc1nc2c(ncn2[C@@H]2OC(CO)=CC2O)c(=O)[nH]1 (stereo partly shown) > 2000 µM

====

Test system: RSV
Settings: African green monkey
Recorded metric: CC50

Check the records and state CC50 for Nc1ccn([C@@H]2OC(CO)=C[C@H]2O)c(=O)n1 [AB21650, 3′-deoxy-3′,4′-didehydro cytidine] > 2000 µM

====

Test: in vivo
Details: male, Sprague-Dawley, rat, iv, 10 mg/kg
Recorded metric: concentration at 72 h (nM)
# output: bare number, implied unit nM

Consider the compound `CCCCCCCCCCCCCCCCOCCCOP(=O)(O)OCC1=C[C@H](O)[C@H](n2cnc3c(=O)[nH]c(N)nc32)O1` . State its measured concentration at 72 h. 4

Entry source: patent US12466849B2
